pIC50: −log10 of the molar value.
# pIC50 against IKKε (Homo sapiens, UniProt Q14164), merged from multiple literature sources

| molecule | pIC50 |
| --- | --- |
| N#Cc1cc(-c2ccnc(Nc3cnc(CO)cn3)c2)ccc1OC1CCOCC1 | 8.10 |
| COc1ccc(-c2cnc3[nH]cc(C4=CCN(C(=O)NC(C)C)CC4)c3c2)cc1 | 5.66 |
| CN1CCN(c2ccnc(Nc3cc(-c4ccc(OC5CCOCC5)c(C#N)c4)ccn3)c2)CC1 | 6.68 |
| CC(CO)(CCl)COc1ccc(-c2ccnc3cc(-c4ccc(C(=O)N5CCNCC5)cc4)oc23)cc1C#N (stereo not shown) | > 6.52 |
| N#Cc1cc(-c2c[nH]c3ncc(Br)cc23)ccc1OCC1CC1 | 4.30 to 5.52 |
| COc1nc(Nc2cc(-c3ccc(OC4CCNCC4(F)F)c(C#N)c3)ncn2)ccc1N1CCN(C2COC2)C[C@@H]1C (stereo partly shown) | > 7.00 |
| COc1cc(-c2cc3nccc(-c4ccc(OC5CCOCC5)c(C#N)c4)c3o2)ccc1C(=O)N1CCNC(=O)C1 | > 6.52 |
| Cn1cc(-c2cnc3[nH]cc(-c4cn(CCc5ccccc5)nn4)c3c2)cn1 | 6.00 to 9.30 |
| CN(CCO)C(=O)c1ccc(-c2cc3nccc(-c4ccc(OC5CCOCC5)c(C#N)c4)c3o2)c(F)c1 | > 6.52 |
| Cc1cc(Nc2cc(-c3ccc(OC4CCOCC4)c(C#N)c3)ccn2)no1 | 7.42 |

Just so you know, measured pIC50 for COc1nc(Nc2cc(-c3ccc(O[C@H]4CCN(C(=O)[C@@H](C)O)CC4(F)F)c(C#N)c3)ncn2)ccc1N1CCN(C2COC2)CC1 came out at > 7.00

COc1nc(Nc2cc(-c3ccc(OC4CN(C)C4)c(C#N)c3)ncn2)ccc1N1CCN(C)CC1 has a reported pIC50 of > 7.00

pIC50 measured on CCC1CC(c2c[nH]c3ncc(-c4ccc(CN5CCOCC5)s4)cc23)=CCN1C(=O)NC(C)C (stereo not shown) = 7.37

N#Cc1cc(-c2ccnc3cc(-c4ccc(C(=O)N5CCNCC5)cc4)oc23)ccc1N1CCOCC1 yielded pIC50 of > 6.52

// recorded pIC50 for Cn1cc(-c2cnc3[nH]cc(-c4cn(Cc5ccc6ncccc6c5)nn4)c3c2)cn1 : 5.00 to 6.00

Per the record, N#Cc1cc(-c2c[nH]c3ncc(-c4cnn(CCN5CCCC5)c4)cc23)ccc1OC1CCOCC1 has pIC50 of > 6.52

----------
pIC50: −log10 of the molar value.
// note: pIC50 values for IKKε (Homo sapiens, UniProt Q14164) were reported in different studies

Check out these entries, answers already filled in.
| compound | pIC50 |
| --- | --- |
| COc1nc(Nc2cc(-c3ccc(OC4CCOCC4)c(C#N)c3)ncn2)ccc1C(=O)NC1C2COCC21 (centres unmarked) | > 7.00 |
| CC(=O)c1c[nH]c(-c2cnc(N)c(C(=O)Nc3ccncc3)c2)c1 | 6.38 |
| N#Cc1cc(-c2c[nH]c3ncccc23)ccc1OC1CCOCC1 | > 6.52 |
| Cn1cc(-c2cnc3[nH]cc(-c4ccc(OC5COC5)c(C#N)c4)c3c2)cn1 | > 6.52 |
| N#Cc1cc(-c2ccnc3cc(-c4cccc5[nH]cnc45)oc23)ccc1OC1CCOCC1 | 5.52 to 6.52 |

Tested on IKKε (Homo sapiens, UniProt Q14164): N#Cc1cc(-c2ccnc(Nc3cnn(CC4CC4C#N)c3)c2)ccc1OC1CCOCC1 (centres unmarked) . Observed pIC50: 7.05

For the compound CN(CCO)C(=O)c1ccc(-c2cc3nccc(-c4ccc(OCC5(C)COC5)c(C#N)c4)c3o2)cc1 , the measured pIC50 on IKKε (Homo sapiens, UniProt Q14164) was > 6.52

IKKε (Homo sapiens, UniProt Q14164) data for N#Cc1cc(-c2ccnc3cc(-c4cnn(CCCO)c4)oc23)ccc1OC1CCOCC1 ; its pIC50: > 6.52

----------
Record set: IC50 | IKKε (Homo sapiens) | literature, multiple sources.
Please reply with the bare figure in µM and do not write the unit itself.

The reported IC50 value, IKKε (Homo sapiens), for Nc1ncc(-c2ccc(CN3CCCC3)s2)cc1C(=O)Nc1ccncc1 reads 0.11

Case N#Cc1cc(-c2ccnc(Nc3ccc4oc(C(N)=O)cc4c3)n2)ccc1OC1CCOCC1 , IKKε (Homo sapiens), IC50 recorded as 0.015

Hey, IKKε (Homo sapiens) data for N#Cc1cc(-c2ccnc(Nc3ccc(C(F)(F)F)cn3)c2)ccc1OC1CCOCC1 : IC50 came out at 0.53

IC50 for IKKε (Homo sapiens) with input CCCCNc1ccc(-c2ccnc(Nc3cccc(OC)c3)n2)c2c1C(=O)NC2 equals 0.88

IC50 on IKKε (Homo sapiens) for CCC(C)NC(=O)N1CC=C(c2c[nH]c3ncc(-c4ccc(CN5CCN(C)CC5)s4)cc23)CC1 (stereo not shown) is 0.062

Tested on IKKε (Homo sapiens): Nc1ncc(-c2ccsc2)cc1C(=O)Nc1ccncc1 . Observed IC50: 0.93

# CN(C)c1ccc(C(=O)Nc2sc(-c3ccncc3)nc2C(N)=O)cc1 with IKKε (Homo sapiens): IC50 is 1.6

Query Nc1ncc(-c2ccc(CN3CCCC3)s2)nc1C(=O)Nc1ccncc1 on IKKε (Homo sapiens); IC50 returned: 1.9

IC50 on IKKε (Homo sapiens) for COc1ccc(-c2cnc3[nH]cc(C4=CC(C)N(C(=O)NC5CCCC5)CC4)c3c2)cc1OC (stereo not shown) is 0.029

Kindly note: IKKε (Homo sapiens), CCC1C=C(c2c[nH]c3ncc(-c4ccc(CN5CCOCC5)s4)cc23)CCN1C(=O)NC(C)C (stereo not shown) , IC50 value reported: 0.39

Summary: CC(C)NC(=O)N1CC=C(c2c[nH]c3ncc(-c4ccc(N)c5c4CNC5=O)cc23)CC1 , IKKε (Homo sapiens), IC50 = 0.035

----------
pIC50: −log10 of the molar value.
Literature compilation of pIC50 measurements on IKKε (Homo sapiens).

Recorded pIC50, per entry:
| line-notation | pIC50 |
| --- | --- |
| CN1CCN(C(=O)c2ccc(-c3cc4nccc(-c5ccc(OCC6CCC6)c(C#N)c5)c4o3)cc2)CC1 | > 6.52 |
| NC(=O)c1nc(-c2ccncc2)sc1NC(=O)c1cc[nH]n1 | 5.14 |
| N#Cc1cc(-c2ccnc3cc(-c4ccc5[nH]c(=O)[nH]c5c4)oc23)ccc1OC1CCOCC1 | 4.30 to 5.52 |

Moving on to another compound below.
Field pIC50 (entry COc1nc(Nc2cc(-c3ccc(O[C@@H]4CCN(C(=O)[C@H](C)O)CC4(F)F)c(C#N)c3)ncn2)ccc1N1CCN(C2COC2)CC1 ) reads > 7.00

----------
pIC50: −log10 of the molar value.
Below are pIC50 measurements against IKKε (Homo sapiens) drawn from the literature.
Assign 1 to entries whose pIC50 meets or exceeds 7; assign 0 to the rest.

| compound | discrete-label |
| --- | --- |
| CN(C)Cc1ccnc(Nc2cc(-c3ccc(OC4CCOCC4)c(C#N)c3)ccn2)c1 | 1 |

*Q* // inclusive: pIC50 at least 7? input: CC(C)NC(=O)N1CC=C(c2c[nH]c3ncc(-c4ccc(CN5CCOCC5)cc4)cc23)CC1
*A* 1

*Q* Say whether N#Cc1cc(-c2ccnc(Nc3ccc(CN4CC5(COC5)C4)cn3)c2)ccc1OC1CCOCC1 shows pIC50 of 7 or more.
*A* 1

*Q* Identify whether the reported pIC50 of the following compound is 7 or greater: N#Cc1cc(-c2ccnc(Nc3cc(CN)ccn3)c2)ccc1OC1CCOCC1
*A* 1

*Q* Reported pIC50 at or above 7? CN1CCN(Cc2ccc(C(=O)Nc3sc(-c4ccnc(C#N)c4)nc3C(N)=O)cc2)CC1
*A* 0

*Q* Does CCC1C=C(c2c[nH]c3ncc(-c4ccc(C(=O)N5CCN(C)CC5)cc4)cc23)CCN1C(=O)NC(C)C (stereo not shown) have a reported pIC50 of at least 7?
*A* 1

*Q* Does COc1nc(Nc2cc(-c3ccc(OC4CCN(C(=O)C(C)O)CC4)c(C#N)c3)ncn2)ccc1N1CCN(C)CC1 (stereo not shown) have a reported pIC50 of at least 7?
*A* 1

*Q* Reported pIC50 at or above 7? Cc1coc(Nc2nccc(-c3ccc(OC4CCOCC4)c(C#N)c3)n2)n1
*A* 0

*Q* For this compound, is measured pIC50 7 or higher? CN1CCC(Cc2ccc(C(=O)Nc3sc(-c4ccncc4)nc3C(N)=O)cc2)CC1
*A* 1

*Q* Can CC(=O)Nc1ccc(-c2ccnc(Nc3ccc(C)cc3)n2)c2c1C(=O)NC2 be said to have pIC50 at or above 7?
*A* 0

*Q* Could you verify whether the entry Nc1ncc(-c2cnc3ccccn23)cc1C(=O)Nc1ccncc1 shows pIC50 of no less than 7?
*A* 0

*Q* Is it the case that COc1nc(Nc2cc(-c3ccc(OC4CCN(C(=O)[C@H](C)O)CC4(F)F)c(C#N)c3)ncn2)ccc1N1CCN(C2COC2)CC1 (stereo partly shown) has pIC50 reaching or exceeding 7?
*A* 1
